# target_system: full length human FXR protein (Homo sapiens (Human))
# assay_explanation: FXR cellular assay (FXR-SRCP β-gal enzyme fragment complementation in CHO-K1 cells, chemiluminescence)
# measurement_conditions: CHO-K1 cells with SRCP-EA and ProLink-labeled FXR, 0-10 micromolar compound, 37° C. for 6h, read-out: EC50 FXR-cell Luminescence/
assay_metric: pEC50
Give bare numbers, as −log10 of the molar value.

As a guide, the following entries are already answered.
| molecule | target_system | assay_metric | observed_measurement |
| --- | --- | --- | --- |
| O=c1[nH]c(-c2ccc(N3CCC(OCc4c(-c5ccccc5OC(F)(F)F)noc4C4CC4)CC3)nc2)no1 | full length human FXR protein (Homo sapiens (Human)) | pEC50 | 6.42 |
| O=c1cc(-c2ccc(N3CCC(OCc4c(-c5ccccc5OC(F)(F)F)noc4C4CC4)CC3)cc2)o[nH]1 | full length human FXR protein (Homo sapiens (Human)) | pEC50 | 5.79 |
| O=c1[nH]c(-c2ccc(N3CCC(OCc4c(-c5ccccc5OC(F)(F)F)noc4C4CC4)C(F)(F)C3)cc2)no1 (stereo not shown) | full length human FXR protein (Homo sapiens (Human)) | pEC50 | 6.15 |
| O=c1[nH]c(-c2ccc(N3CCC(OCc4c(-c5c(Cl)cccc5Cl)noc4C4CC4)CC3)c(F)c2)no1 | full length human FXR protein (Homo sapiens (Human)) | pEC50 | 6.81 |
| O=c1[nH]c(-c2ccc(N3CC[C@H](OCc4c(-c5ccccc5OC(F)(F)F)noc4C4CC4)[C@@H](F)C3)cc2)no1 | full length human FXR protein (Homo sapiens (Human)) | pEC50 | 6.19 |
| O=c1[nH]c(-c2ccc(N3CCC(OCc4c(-c5c(F)cccc5F)noc4C4CC4)CC3)cc2)no1 | full length human FXR protein (Homo sapiens (Human)) | pEC50 | 6.25 |

Can you give me pEC50 for all of these, one by one?
1. C[C@@H]1C[C@@H](OCc2c(-c3c(Cl)cccc3Cl)noc2C2CC2)CCN1c1ccc(-c2noc(=O)[nH]2)cc1
2. Cc1cc(N2CCC(OCc3c(-c4c(Cl)cccc4Cl)noc3C3CC3)CC2)ccc1-c1noc(=O)[nH]1
3. O=c1[nH]nc(-c2ccc(N3CCC(OCc4c(-c5c(Cl)cccc5Cl)noc4C4CC4)CC3)nc2)c(=O)[nH]1
4. O=c1[nH]c(-c2csc(N3CCC(OCc4c(-c5c(Cl)cccc5Cl)noc4C4CC4)CC3)c2)no1

[6.46, 6.55, 6.61, 6.58]

----------
# target_system: full length human FXR protein (Homo sapiens (Human), UniProt Q96RI1)
# Sequence (Q96RI1 whole entry, the tested form may be a part): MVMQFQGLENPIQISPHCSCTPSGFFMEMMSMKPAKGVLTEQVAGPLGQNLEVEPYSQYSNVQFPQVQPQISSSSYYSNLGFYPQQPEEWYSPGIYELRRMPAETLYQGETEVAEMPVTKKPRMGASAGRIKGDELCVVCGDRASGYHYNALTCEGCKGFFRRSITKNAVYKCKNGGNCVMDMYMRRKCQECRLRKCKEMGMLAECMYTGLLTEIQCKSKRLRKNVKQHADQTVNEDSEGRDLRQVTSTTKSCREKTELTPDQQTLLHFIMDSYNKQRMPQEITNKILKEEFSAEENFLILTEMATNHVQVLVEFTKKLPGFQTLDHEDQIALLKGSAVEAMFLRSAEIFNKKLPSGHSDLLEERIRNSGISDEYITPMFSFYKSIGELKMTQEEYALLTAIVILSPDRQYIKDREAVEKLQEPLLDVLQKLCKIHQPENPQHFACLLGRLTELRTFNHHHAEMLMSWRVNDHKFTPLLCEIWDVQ
# assay_explanation: FXR cellular assay (FXR-SRCP β-gal enzyme fragment complementation in CHO-K1 cells, chemiluminescence)
# measurement_conditions: CHO-K1 cells with SRCP-EA and ProLink-labeled FXR, 0-10 micromolar compound, 37° C. for 6h, read-out: EC50 FXR-cell Luminescence/
Field: log10 EC50. Provide a value for each of the molecules that follow.
Scale: decimal log of EC50, EC50 in nM.

| molecule | target_system | log10 EC50 |
| --- | --- | --- |
| O=c1[nH]c(-c2ccc(N3CCC(OCc4c(-c5ccccc5OC(F)(F)F)noc4C4CC4)C(F)(F)C3)nc2)no1 (stereo not shown) | full length human FXR protein (Homo sapiens (Human), UniProt Q96RI1) | 3.36 |
| O=c1[nH]nc(-c2ccc(N3CCC(OCc4c(-c5ccccc5OC(F)(F)F)noc4C4CC4)CC3)nc2)o1 | full length human FXR protein (Homo sapiens (Human), UniProt Q96RI1) | 3.28 |
| O=c1[nH]c(-c2ccc(N3[C@@H]4CC[C@H]3C[C@@H](OCc3c(-c5c(F)cccc5F)noc3C3CC3)C4)nc2)no1 | full length human FXR protein (Homo sapiens (Human), UniProt Q96RI1) | 2.19 |
| O=c1[nH]c(-c2ccc(N3CCCC(OCc4c(-c5ccccc5OC(F)(F)F)noc4C4CC4)CC3)cc2)no1 (stereo not shown) | full length human FXR protein (Homo sapiens (Human), UniProt Q96RI1) | 1.88 |
| O=c1[nH]nc(-c2ccc(N3CCC(OCc4c(-c5c(Cl)cccc5Cl)noc4C4CC4)CC3)cn2)o1 | full length human FXR protein (Homo sapiens (Human), UniProt Q96RI1) | 2.53 |
| O=c1[nH]c(-c2ccc(N3CCC(OCc4c(-c5c(F)cccc5F)noc4C4CC4)C(F)(F)C3)cc2)no1 (stereo not shown) | full length human FXR protein (Homo sapiens (Human), UniProt Q96RI1) | 2.93 |

Can you give me log10 EC50 for all of these, one by one?
1. O=c1[nH]c(-c2n[nH]c(N3CCC(OCc4c(-c5c(Cl)cccc5Cl)noc4C4CC4)CC3)n2)no1
2. O=c1[nH]c(-c2ccc(N3CCC(OCc4c(-c5c(Cl)cccc5Cl)noc4C4CC4)CC3)cn2)no1

[4.00, 3.20]

Can you give me log10 EC50 for all of these, one by one?
1. O=c1[nH]nc(-c2ccc(N3[C@@H]4CC[C@H]3C[C@@H](OCc3c(-c5ccccc5OC(F)(F)F)noc3C3CC3)C4)cc2)c(=O)[nH]1
2. O=c1[nH]c(-c2ccc(N3CCC(OCc4c(-c5c(Cl)cccc5Cl)noc4C4CC4)C3)cc2)no1 (stereo not shown)
3. O=c1cc(-c2ccc(N3[C@@H]4CC[C@H]3C[C@@H](OCc3c(-c5ccccc5OC(F)(F)F)noc3C3CC3)C4)cc2)o[nH]1
4. O=c1[nH]c(-c2ccc(N3CC(OCc4c(-c5c(Cl)cccc5Cl)noc4C4CC4)C3)cc2)no1
5. O=c1[nH]nc(-c2ccc(N3[C@@H]4CC[C@H]3C[C@@H](OCc3c(-c5ccccc5OC(F)(F)F)noc3C3CC3)C4)nc2)o1
6. O=c1[nH]c(-c2ccc(N3[C@@H]4CC[C@H]3C[C@@H](OCc3c(-c5ccccc5OC(F)(F)F)noc3C3CC3)C4)cc2)no1

1: 1.82; 2: 3.74; 3: 2.24; 4: 2.92; 5: 2.23; 6: 1.73

Can you give me log10 EC50 for all of these, one by one?
1. O=c1[nH]c(-c2ccc(N3CCC(OCc4c(-c5c(Cl)cccc5Cl)noc4C4CC4)CC3)cc2F)no1
2. C[C@H]1CN(c2ccc(-c3noc(=O)[nH]3)cc2)CC[C@@H]1OCc1c(-c2c(Cl)cccc2Cl)noc1C1CC1
3. N#Cc1nn(-c2ccc(N3[C@@H]4CC[C@H]3C[C@@H](OCc3c(-c5ccccc5OC(F)(F)F)noc3C3CC3)C4)cc2)c(=O)[nH]c1=O
4. N#Cc1nn(-c2ccc(N3CCC(OCc4c(-c5ccccc5OC(F)(F)F)noc4C4CC4)CC3)cc2)c(=O)[nH]c1=O
5. C[C@@H]1C[C@H](OCc2c(-c3c(F)cccc3F)noc2C2CC2)CCN1c1ccc(-c2noc(=O)[nH]2)cn1
6. N#Cc1nn(-c2ccc(N3CCC(OCc4c(-c5c(Cl)cccc5Cl)noc4C4CC4)CC3)nc2)c(=O)[nH]c1=O

[1.92, 2.85, 3.00, 2.88, 2.54, 3.26]

Can you give me log10 EC50 for all of these, one by one?
1. O=c1[nH]c(-c2ncc(N3CCC(OCc4c(-c5c(Cl)cccc5Cl)noc4C4CC4)CC3)s2)no1
2. O=c1cc(-c2ccc(N3CCC(OCc4c(-c5c(Cl)cccc5Cl)noc4C4CC4)C(F)(F)C3)cc2)o[nH]1 (stereo not shown)

1. 2.95
2. 2.42
